Test system: SadX
Format: biochemical
assay-conditions: KM for salt; hydroxylation of 1a (1 mM) to give 1b by 0.5 μM SadX, varying [salt]
Km: recorded values

{"columns": ["smiles-structure", "unit-tag", "Km"],
 "data": [
  ["O=C[O-].[Na+]", "µM", 450],
  ["[Cl-].[Na+]", "µM", 4160],
  ["[N-]=[N+]=[N-].[Na+]", "µM", 14],
  ["[Cs+].[F-]", "µM", 12000]
]}

====

Kd: recorded values
target-under-test: Fe(II) center in SadX
method-description: UV-vis titration of anion binding
assay-conditions: Red-shifted Absorbance; SadX-His/Fe(II)/αKG, 100 mM HEPES pH 7.5
property-measured: Kd

{"columns": ["smiles-structure", "test-value"],
 "data": [
  ["[Cs+].[F-]", "450 µM"],
  ["[Cl-].[Na+]", "490 µM"],
  ["[N-]=[N+]=[N-].[Na+]", "600 µM"],
  ["O=C[O-].[Na+]", "470 µM"]
]}
